System: CCRF-CEM leukemia
PROCEDURE TEXT: NCI-60 one-dose screen, 48 h
ASSAY CONDITIONS: 10 µM unless noted
Compounds without any hit were thinned out: in the full panel of roughly 83,000, 20% have a hit. Calls of active or inactive are those of the source. How the source made its calls: active means growth percent below 10; inactive means the rest.
The reply should name one outcome from t = active, f = inactive

CC(=O)CC[C@H]1C(=O)N[C@@H](C(C)C)C(=O)N[C@@H](Cc2cc(O)cc(F)c2)C(=O)N2CCC[C@H](N2)C(=O)O[C@H](/C(C)=C/C=C/C(=O)OC(C)(C)C)C/C=C/C=C/[C@H](O)[C@H](C)[C@H]1O
f
Cc1nc2ccccc2c(/C=C/c2ccc(Cl)cc2)c1C(=O)/C=C/c1ccc(C(F)(F)F)cc1
t
CCC(C)(c1cc(C(C)(C)C)c(O)c(C(C)(C)C)c1)c1cc(C(C)(C)C)c(O)c(C(C)(C)C)c1
f
COc1ccc(CN2c3ccccc3Sc3ccccc32)c(F)c1
t
CCN(CC)Cc1cc(Nc2c3ccc(Cl)cc3nc3ccc(OC)cc23)ccc1O
f
Cc1cccc(NCc2cn(-c3ccc(C(=O)O)cc3)nc2-c2ccc(C(=O)O)cc2)n1
f
NCCCNc1nc2ccccc2c2c(=O)c3cc(F)cc(Cl)c3sc12
t
CCc1cccc2c3c(sc12)C(c1ccc(Cl)cc1)C(C#N)=C(N)O3 (centres undefined)
t
CC(=O)OC[C@H]1OC(Sc2sc(C(=O)c3ccc(Br)cc3)c(N)c2-c2nc3ccccc3s2)[C@H](OC(C)=O)[C@@H](OC(C)=O)[C@H]1OC(C)=O (some centres undefined)
f
NS(=O)(=O)c1ccc(N=Nc2ccc(-c3nn4cc(-c5ccccc5)nc4s3)cc2)cc1
f

Data request: Test call for this compound, please: Cc1ccc2c(n1)C(=O)C(Cl)=C(Nc1ccccc1C(C)C)C2=O
Data returned: f

Data request: Outcome? N#C/C(=C\c1cccc2cnccc12)n1nnc2cccc(F)c21
Data returned: f

Data request: Outcome logged for COc1ccc(NC2=C(Br)C(=O)C(C)=C(C)C2=O)cc1 in this assay:
Data returned: t

Data request: Recorded call for O=C1c2cccc3cccc(c23)C(=O)N1Nc1nc(N2CCOCC2)nc(N2CCN(c3ccccc3)CC2)n1 ?
Data returned: f

Data request: Assay result, entry CCCCC1CCCC12NC(=O)NC2=O (centres undefined) — outcome?
Data returned: f

Data request: Would you mind telling me which call this test gave NCCCNc1nc2ccccc2c2c(=O)c3cc(OC(F)(F)F)ccc3sc12 ?
Data returned: t

Data request: Test call, this compound: NCCCNc1nc2ccccc2c2c(=O)c3cccc(F)c3sc12
Data returned: t

Data request: Record lookup: outcome of this test for CCCCCCN1C(=O)/C(=c2\sc3n(c2=O)C2C(NN=3)N(CC)C(=O)N2CC)c2ccccc21 (centres undefined) ?
Data returned: f

Data request: Write down the call the test reported for this compound. Item: Cc1nc2ccccc2n1-c1ncnc2c1CC(C)c1ccccc1N2C (centres undefined)
Data returned: f

---

Parameter: growth. Scope: all listed entries.
Tested on: RXF 393 renal
PROCEDURE TEXT: NCI-60 one-dose screen, 48 h (100 = growth as untreated, 0 = no growth, -100 = all killed)
ASSAY CONDITIONS: 10 µM unless noted
The panel holds about 83,000 compounds, 20% with a hit somewhere; the sample as a whole holds those more often.
Field format: number, assumed %, no unit text.

CNc1nc2c(s1)C(c1cc(F)ccc1F)CC(=O)N2 (centres undefined)
75.5
CCOC(=O)c1c2c(n(-c3ccc(C#N)cc3)c1-c1ccccc1)C=CCC2
109
COc1nc2ccc(C)cc2cc1-c1nc2c(cnn2-c2ccccc2)c(=O)[nH]1
89.4
CN1C(=C2C(=O)OC(C)(C)OC2=O)CCC1C(=O)NCc1ccc(Cl)cc1Cl (centres undefined)
108
CN1CCN(CC(=O)N2c3cccc4cccc(c34)N(C(=O)CN3CCN(C)CC3)C2c2cn(-c3ccccc3)nc2-c2cccc([N+](=O)[O-])c2)CC1
-19.1

Data request: Provide RXF 393 renal growth reading for N#Cc1c(-c2ccccc2)nc(SCC(=O)Nc2nc(-c3ccc(Cl)cc3)cs2)[nH]c1=O .
Data returned: 110

Data request: Return reported growth for target or system RXF 393 renal, item Cc1nn(-c2ccccc2)c(-n2ccnc2)c1/C=N/Nc1nc(-c2ccc(F)cc2)cs1 .
Data returned: 88.5

Data request: Given CCOC(=O)Nc1ccc(C(=O)/C=C/c2ccccc2)cc1 , report its growth on RXF 393 renal.
Data returned: 36.8

Data request: Give growth for CCOC(=O)Nc1ccc(-c2nc(-c3cccc(OCCN4CCOCC4)c3)c(-c3ccnc(Br)c3)[nH]2)cc1 tested on RXF 393 renal.
Data returned: -25.9
